src = patent US20210363269A1

Biological target: T1, human SIRP-α v2 (human)
T1 construct: also called Human v2; Human V2
T1 sequence (chain, as listed by the source limits assumed): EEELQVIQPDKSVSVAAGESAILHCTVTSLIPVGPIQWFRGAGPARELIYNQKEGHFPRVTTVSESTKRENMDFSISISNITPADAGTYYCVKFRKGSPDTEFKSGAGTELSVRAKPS
Experiment: SPR
Catalogue of Kd readings, one per entry.
Write the number in nM without appending the unit.

// worked examples, Kd included
antibody 209 (antibody, V domains shown, also called S209) VH: DVQLVESGGAVVRPGESLRLSCKASGFTFTNFAMSWVRQAPGEGLEWVSGISGSDDTTYYADSVKGRFTISRDNSESTLYLQMNSLRAEDTAVYYCVKDSTVSWNTFFDYWGLGTLVTVSS VL: ALTQPASVSANLGGTVKITCSGGYGSDDGSSSYYGWYQQKSPGSAPVILIYWDDKRPSDIPSRFSGSTSGSTTTLTITGVQAEDEAVYFCGTYDTSSGAIFGAGTTLTVL
5.01
antibody 121 (antibody, V domains shown, also called S121) VH: VQLVESGGGVVQPGGSLRLSCAASGFSFSNFAMTWVRQAPGEGLEWVSTIGSGDTYYADSVKGRFTISRDNSKNTLYLQMNSLRAEDTAVYYCAKDSTVSWSGDFFDYWGLGTLVTVSS VL: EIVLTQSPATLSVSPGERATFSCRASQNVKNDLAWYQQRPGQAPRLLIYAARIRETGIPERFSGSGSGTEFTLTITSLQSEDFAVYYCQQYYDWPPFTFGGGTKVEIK
0.0501

Switching to the query record.
Query: Quick check: Kd of antibody 3 (antibody, V domains shown, also called AB3; S3) VH: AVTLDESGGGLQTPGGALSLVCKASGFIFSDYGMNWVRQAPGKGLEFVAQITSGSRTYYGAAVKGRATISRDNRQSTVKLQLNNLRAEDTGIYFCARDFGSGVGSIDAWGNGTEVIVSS VL: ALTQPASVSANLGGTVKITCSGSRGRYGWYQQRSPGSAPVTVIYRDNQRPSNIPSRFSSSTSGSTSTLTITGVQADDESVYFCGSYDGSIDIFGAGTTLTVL ?
Response: 0.0767
